Give measured mean geometric MIC, Vancomycin Resistant Strains for each item. Keep answers brief.
Test system: vancomycin-resistant enterococci
Experiment: broth micro-dilution, mean geometric MIC
Assay type: cell-based, Enterococcus faecium and Enterococcus faecalis
Settings: enterococci, 24-hour incubation
One number for each entry, in µg/mL.

CC(C)CC(C(=O)NC1C(=O)NC(CC(N)=O)C(=O)NC2C(=O)NC3C(=O)NC(C(=O)NC(C(=O)O)c4cc(O)cc(O)c4-c4cc3ccc4O)C(OC3CC(C)(NCc4cccc5c([N+](=O)[O-])cccc45)C(O)C(C)O3)c3ccc(c(Cl)c3)Oc3cc2cc(c3OC2OC(CO)C(O)C(O)C2OC2CC(C)(N)C(O)C(C)O2)Oc2ccc(cc2Cl)C1O)N(C)Cc1cccc2c([N+](=O)[O-])cccc12 (centres unmarked)	19

Query: Tell me mean geometric MIC, Vancomycin Resistant Strains reported for CNC(CC(C)C)C(=O)NC1C(=O)NC(CC(N)=O)C(=O)NC2C(=O)NC3C(=O)NC(C(=O)NC(C(=O)O)c4cc(O)cc(O)c4-c4cc3ccc4O)C(OC3CC(C)(N)C(O)C(C)O3)c3ccc(c(Cl)c3)Oc3cc2cc(c3OC2OC(CO)C(O)C(O)C2OC2CC(C)(NCc3c4c(cc5ccccc35)CCCC4)C(O)C(C)O2)Oc2ccc(cc2Cl)C1O (centres unmarked)
Reply: 5.7
